- Assay setup: in isopropanol, 258.15 K
Measured property: solubility (mole fraction)

Req: Given the compound "OC/C=C/c1ccccc1" , what is its reported solubility (mole fraction)?
Resp: 0.242

----------
- Assay setup: in ethanol, 293.15 K
Measured property: solubility (mole fraction)
Numbers only.

Req: May I ask what solubility (mole fraction) has been recorded for "OC/C=C/c1ccccc1" ?
Resp: 0.652

----------
- Assay setup: in sec-butanol, 283.15 K
Measured property: solubility (mole fraction)
Give bare numbers.

Req: Requested read-out: solubility (mole fraction). Entry: "OC/C=C/c1ccccc1"
Resp: 0.459

----------
- Assay setup: in n-butanol, 278.15 K
Measured property: solubility (mole fraction)

Req: Endpoint output: solubility (mole fraction) of "OC/C=C/c1ccccc1" . Value?
Resp: 0.412

----------
- Assay setup: in ethyl acetate, 288.15 K
Measured property: solubility (mole fraction)
Give bare numbers.

Req: What measured solubility (mole fraction) goes with "OC/C=C/c1ccccc1" ?
Resp: 0.61

----------
- Assay setup: in n-hexane, 263.15 K
Measured property: solubility (mole fraction)
One number for each entry.

Req: Any idea what solubility (mole fraction) was measured for "OC/C=C/c1ccccc1" ?
Resp: 0.0104

----------
- Assay setup: in acetic acid, 318.15 K
Measured property: solubility (mole fraction)

Req: Using the record for "O=C(O)c1ccccc1O" , report its solubility (mole fraction).
Resp: 0.0903

----------
- Assay setup: in ethyl acetate, 283.15 K
Measured property: solubility (mole fraction)
Give bare numbers.

Req: Please give the measured solubility (mole fraction) for this compound: "OC/C=C/c1ccccc1"
Resp: 0.547

----------
- Assay setup: in ethanol, 253.15 K
Measured property: solubility (mole fraction)
Answers are plain numbers.

Req: What value of solubility (mole fraction) has been reported for the following compound? "OC/C=C/c1ccccc1"
Resp: 0.22

----------
- Assay setup: in isopropanol, 253.15 K
Measured property: solubility (mole fraction)
Numbers only.

Req: Given the entry "OC/C=C/c1ccccc1" , report its measured solubility (mole fraction).
Resp: 0.195

----------
- Assay setup: in methanol, 298.15 K
Measured property: solubility (mole fraction)
One number for each entry.

Req: Recorded solubility (mole fraction) of "O=C(O)c1ccccc1O" , please.
Resp: 0.123

----------
- Assay setup: in methyl acetate, 288.15 K
Measured property: solubility (mole fraction)
Answers are plain numbers.

Req: Fill in: solubility (mole fraction) of "OC/C=C/c1ccccc1" is ___
Resp: 0.591

----------
- Assay setup: in isobutanol, 273.15 K
Measured property: solubility (mole fraction)

Req: Give the measured solubility (mole fraction) of "OC/C=C/c1ccccc1" .
Resp: 0.287

----------
- Assay setup: in acetic acid, 303.15 K
Measured property: solubility (mole fraction)
Give bare numbers.

Req: What measured solubility (mole fraction) goes with "O=C(O)c1ccccc1O" ?
Resp: 0.0617

----------
- Assay setup: in acetic acid, 308.15 K
Measured property: solubility (mole fraction)

Req: Which measured solubility (mole fraction) value corresponds to "O=C(O)c1ccccc1O" ?
Resp: 0.0709

----------
- Assay setup: in n-butanol, 288.15 K
Measured property: solubility (mole fraction)
One number for each entry.

Req: What does the data say about its solubility (mole fraction)? Entry: "OC/C=C/c1ccccc1"
Resp: 0.553

----------
- Assay setup: in n-hexane, 283.15 K
Measured property: solubility (mole fraction)
Give bare numbers.

Req: // query solubility (mole fraction) value for entry "OC/C=C/c1ccccc1"
Resp: 0.0294

Just for reference, BigSolDB 2.1 is where these values come from.
